- test_system: T1, human EphA2 (ephrin receptor A2), on cells (human, UniProt P29317 24-976)
- T1 construct: Used for HEK293 transfectants, A549 and other human tumor cell lines
- T1 sequence (P29317 24-976 limits assumed): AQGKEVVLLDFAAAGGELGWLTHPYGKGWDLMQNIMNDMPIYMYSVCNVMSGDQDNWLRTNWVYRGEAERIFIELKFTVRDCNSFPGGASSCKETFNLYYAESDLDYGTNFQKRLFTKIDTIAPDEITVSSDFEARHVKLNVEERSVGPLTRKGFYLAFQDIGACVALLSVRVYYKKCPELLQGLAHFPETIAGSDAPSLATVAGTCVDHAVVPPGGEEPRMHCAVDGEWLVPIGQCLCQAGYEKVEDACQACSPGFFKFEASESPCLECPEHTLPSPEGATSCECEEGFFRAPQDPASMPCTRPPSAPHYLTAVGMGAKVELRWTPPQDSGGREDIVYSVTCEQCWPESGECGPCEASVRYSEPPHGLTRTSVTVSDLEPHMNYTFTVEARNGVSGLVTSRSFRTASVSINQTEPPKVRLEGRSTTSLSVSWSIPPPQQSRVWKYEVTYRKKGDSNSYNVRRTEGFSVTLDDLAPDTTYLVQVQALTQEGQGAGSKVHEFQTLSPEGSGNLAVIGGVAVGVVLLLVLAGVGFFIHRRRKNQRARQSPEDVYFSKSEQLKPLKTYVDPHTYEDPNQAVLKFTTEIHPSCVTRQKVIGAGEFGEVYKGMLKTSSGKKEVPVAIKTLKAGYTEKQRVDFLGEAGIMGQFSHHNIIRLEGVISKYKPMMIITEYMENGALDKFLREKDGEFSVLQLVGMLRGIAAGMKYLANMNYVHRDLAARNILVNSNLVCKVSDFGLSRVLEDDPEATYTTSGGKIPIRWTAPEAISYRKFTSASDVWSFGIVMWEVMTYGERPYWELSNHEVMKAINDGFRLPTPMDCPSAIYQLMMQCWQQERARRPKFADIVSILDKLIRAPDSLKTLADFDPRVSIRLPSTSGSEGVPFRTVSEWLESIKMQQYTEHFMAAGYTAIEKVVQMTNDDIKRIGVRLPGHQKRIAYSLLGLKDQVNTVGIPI
- protocol_details: flow cytometry binding on A549 cells
Below, each of the binders is paired with its reported Flow Delta activity (MedFI) value.
Numbers only; they are read as MedFI.

Worked cases, Flow Delta activity (MedFI) given:
[
  {
    "binder": "AB-009806 (antibody, mouse IgG2a, V domains shown) VH: QVQLQQWGAGLLKPSETLSLTCAVYGGSFSDYYWSWIRQPPGKGLEWIGEINHSGSTNYNPSLKSRVTISVDPSKNQFSLKLTSVTAADTAVYYCAKPFRPHCTNGVCYSGDAFDIWGQGTMVTVSS VL: SYVLTQPPSVSVAPGQTARITCGGNNIGTKNVHWYQQKPGQAPVLVVYDDSDRPSGIPEQFSGSNSGNTATLTISRVEAGDEADYYCQVWDSSSDHLVFGGGTKLTVL",
    "observed_result": 231000
  },
  {
    "binder": "AB-009807 (antibody, mouse IgG2a, V domains shown) VH: QVQLQQWGAGLLKPSETLSLTCAVYGGSFNDYYWSWIRQPPGKGLEWIGEVNHSGSTSYNPSLKSRVTISVDTSKNQFSLKLSSVTAADTAVYYCAKPFRPHCTNGVCYSGDAFDIWGQGTMVTVSS VL: SYVLTQPPSVSVAPGQTARITCGGNNIGSKNVHWYQQKPGQAPALVVYDDSDRPSGIPEQFSGSNSGNTATLTISRVEAGDEADYYCQVWDSSSDHLVFGGGTKLTVL",
    "observed_result": 12700
  }
]

Let us move to another entry and its Flow Delta activity (MedFI).
Q: Consider the binder AB-009805 (antibody, V domains shown) VH: QVQLQQWGAGLLKPSETLSLTCAVYGGSLSDYHWSWIRQPPGKGLEWIGEINHSGSTNYNPSLKSRVTISVDTSKNQFSLKLSSVSAADTAVYYCAKPFRPHCTNGVCHSGDAFDIWGQGTMATVSS VL: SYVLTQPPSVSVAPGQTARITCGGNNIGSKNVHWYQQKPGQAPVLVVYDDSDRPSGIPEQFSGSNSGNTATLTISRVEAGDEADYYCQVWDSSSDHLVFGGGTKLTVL and give its measured Flow Delta activity (MedFI).
Result: 75100
